experiment: in vitro; conditions: human, pH 7.4
readout kind: CLint scaled (mL/min/kg)
Provide the reading as a plain figure in mL/min/kg.

{"smiles code": "N#Cc1cc(C(=O)N2C[C@H]3COC[C@H]3C2)c(N2CC[C@@H](NC(=O)c3cc(=O)[nH]c4c(F)cccc34)C2)c(C(F)(F)F)c1", "readout kind": "CLint scaled", "quantity unit": "mL/min/kg", "observed result": 38.3}
{"smiles code": "C[C@@]12COC[C@@H]1CN(C(=O)c1cc(C#N)cc(C(F)(F)F)c1N1CC[C@@H](NC(=O)c3cc(=O)[nH]c4c(F)cccc34)C1)C2", "readout kind": "CLint scaled", "quantity unit": "mL/min/kg", "observed result": 93.3}
{"smiles code": "N#Cc1cc(C(=O)N2CCC(F)(F)C2)c(N2CC[C@@H](NC(=O)c3cc(=O)[nH]c4c(F)cccc34)C2)c(C(F)(F)F)c1", "readout kind": "CLint scaled", "quantity unit": "mL/min/kg", "observed result": 55}

Task: Indicate the recorded CLint scaled value for this compound: `N#Cc1cc(C(=O)N2CCCCC2)c(N2CC[C@@H](NC(=O)c3cc(=O)[nH]c4c(F)cccc34)C2)c(C(F)(F)F)c1`
Output: 76.7

---

target: OC43 Mpro (Human coronavirus OC43 (HCoV-OC43)); format: biochemical
Sequence (P0C6X6 3247-3549 limits assumed): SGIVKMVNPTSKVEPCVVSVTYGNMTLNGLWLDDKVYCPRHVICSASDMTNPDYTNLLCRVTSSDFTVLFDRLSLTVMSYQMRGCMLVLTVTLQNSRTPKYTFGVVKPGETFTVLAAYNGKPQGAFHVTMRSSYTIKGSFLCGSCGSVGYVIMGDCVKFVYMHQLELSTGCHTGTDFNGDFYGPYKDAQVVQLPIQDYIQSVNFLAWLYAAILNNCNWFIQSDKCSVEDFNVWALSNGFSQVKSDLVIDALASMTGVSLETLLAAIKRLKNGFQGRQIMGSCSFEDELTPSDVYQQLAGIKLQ
The compounds listed here are annotated with their pEC50.
Quick note: pEC50 means taking -log10 of the concentration in moles per liter.

Solved cases below.
{"compound": "O=C(N[C@@H]1CCN(c2c(C(=O)N3CC4CC(C3)O4)cc(Br)cc2C(F)(F)F)C1)c1cc(=O)[nH]c2c(F)cccc12", "observed result": 8.89}
{"compound": "O=C(N[C@@H]1CCN(c2c(C(=O)N3CC4(COC4)C3)cc(Br)cc2C(F)(F)F)C1)c1cc(=O)[nH]c2c(F)cccc12", "observed result": 8.95}
{"compound": "COc1cc(F)cc2[nH]c(=O)cc(C(=O)N[C@@H]3CCN(c4c(C(=O)N5CCOCC5)cc(Br)cc4C(F)(F)F)C3)c12", "observed result": 9.38}
{"compound": "COc1cccc2[nH]c(=O)cc(C(=O)N[C@H]3CN(c4c(C(=O)N5CCOCC5)cc(C)cc4C4CC4)C[C@@H]3OC)c12", "observed result": 9.19}
{"compound": "COCCN(C)C(=O)c1cc(Br)cc(C(F)(F)F)c1N1CC[C@@H](NC(=O)c2cc(=O)[nH]c3c(F)cccc23)C1", "observed result": 7.72}

For the next question, use this compound.
Task: Indicate the recorded pEC50 value for this compound: O=C(N[C@@H]1CCN(c2c(C(=O)N3CCN4CCOCC4C3)cc(Br)cc2C(F)(F)F)C1)c1cc(=O)[nH]c2c(F)cccc12 (stereo partly drawn)
Output: 9.18

---

target: SARS-CoV-1 Mpro (Severe acute respiratory syndrome coronavirus (SARS-CoV), UniProt P0C6X7)
readout kind: EC50 (nM)
Provide the reading as a plain figure in nM.

{"molecule": "N#Cc1cc(C(=O)N2CCOCC2)c(N2CC[C@@H](NC(=O)c3cc(=O)[nH]c4c(F)c(F)ccc34)C2)c(C(F)(F)F)c1 [Compound 8]", "quantity unit": "nM", "EC50": 1.52}

Task: Indicate the recorded EC50 value for this molecule: Cc1cc(C(=O)N2CCOCC2)c(N2CC[C@@H](NC(=O)c3cc(C)[nH]c(=O)c3F)C2)c(C2CC2)c1 [Compound 60]
Output: 0.74

Task: Indicate the recorded EC50 value for this molecule: O=C(N[C@@H]1CCN(c2c(C(=O)N3CC4(COC4)C3)cc(Br)cc2C(F)(F)F)C1)c1cc(=O)[nH]c2c(F)cccc12 [Compound 73]
Output: 3.84

The values you see were collected from patent US20240158368A1.
